# Tested on: LOC_OS04G38480-cb003;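 note: purified Escherichia coli-expressed rice kinase domain construct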
# Sequence (as listed by the source): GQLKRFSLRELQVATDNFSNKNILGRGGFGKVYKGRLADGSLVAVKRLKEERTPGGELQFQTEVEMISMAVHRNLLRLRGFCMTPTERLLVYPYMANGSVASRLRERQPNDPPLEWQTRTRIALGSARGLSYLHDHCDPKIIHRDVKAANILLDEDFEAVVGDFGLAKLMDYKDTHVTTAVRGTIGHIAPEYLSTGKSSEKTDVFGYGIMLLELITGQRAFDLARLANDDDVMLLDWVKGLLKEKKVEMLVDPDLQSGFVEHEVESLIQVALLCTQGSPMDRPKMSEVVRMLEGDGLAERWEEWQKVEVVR
# protocol-text: thermal shift delta Tm vs DMSO control; higher = stronger stabilization (binding)
# condition-details: 12.5 µM; protein concentration 2 µM
measurement-type: thermal shift delta Tm (°C)

> print(dat)
                               entry.smiles  result.unit  measured.result
1  COc1ccc(N(C(=O)Oc2c(C)cccc2C)c2ccnc(Nc3ccc(N4CCN(C)CC4)cc3)n2)c(OC)c1           °C             1.41
2        C/C(O)=C(\C#N)C(=O)Nc1cc(Br)ccc1Br           °C              1.9
3        CC(C)(C)c1cc(C=C(C#N)C#N)cc(Br)c1O           °C            -0.82
4  COc1cc([C@@H]2c3cc4c(cc3[C@H](O)[C@H]3COC(=O)[C@@H]23)OCO4)cc(OC)c1OC           °C             0.78
5  Cc1ccccc1-n1c(Cn2ncc3c(N)ncnc32)nc2cccc(C)c2c1=O           °C            -0.52
6  Cn1cc(C2=C(c3cn(C4CCN(Cc5ccccn5)CC4)c4ccccc34)C(=O)NC2=O)c2ccccc21           °C             2.44
7     COc1ccc2c(c1)/C(=C/c1cnc[nH]1)C(=O)N2           °C             2.32
